B1: CPEB3 Ribozyme (parent)
chain: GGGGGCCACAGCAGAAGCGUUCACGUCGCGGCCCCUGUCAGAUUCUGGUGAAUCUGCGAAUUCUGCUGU

variants of: B1; assay: self-cleavage, relative activity (ratio to wild type); higher = more cleavage; co-transcriptional
value type: self-cleavage
# answer = number (no unit)

These recorded examples may help you get a feel for the data.
>>> print(df.to_string())
   variant_description     value_type  endpoint_result
0            U44C G56C  self-cleavage            0.351
1            C45A A51C  self-cleavage            0.924
2            C29U G48A  self-cleavage            0.601
3             G2U G48A  self-cleavage           0.0985

// next entry
Recorded self-cleavage for C6U A8G , please?
0.813
